assay: CCTE_Deisenroth_DEVTOX-GLR_Ecto_CellCount: Viability Assessment in CCTE's DevTox GLR-Ecto Assay, Deisenroth Lab
Calls of active or inactive are those of the source. The calls were made as follows: active = hit-call score of the fitted dose curve at least 0.9, where 1 is the maximum; inactive = score below 0.9.
Return exactly one item of yes = active, no = inactive

Any idea what this test logged for `CC(C)(c1ccc(O)cc1)c1ccc(O)cc1` ? no

# fetch the recorded call for `CC/C(=C(/CC)c1ccc(O)cc1)c1ccc(O)cc1` here no

How did this test come out for `CS(=O)(=O)OCCCCOS(C)(=O)=O` ? yes

Each molecule tested received a call. Report the one for `O=C1NC(=O)C(c2ccccc2)(c2ccccc2)N1` . no

// return assay outcome for `CC1(C)S[C@@H]2[C@H](NC(=O)Cc3ccccc3)C(=O)N2[C@H]1C(=O)O` no

Which outcome was entered for the molecule O=C1CCC(N2C(=O)c3ccccc3C2=O)C(=O)N1 (stereo not drawn) in this test? no

Assay result, entry `CC1=C(/C=C/C(C)=C/C=C/C(C)=C/C(=O)O)C(C)(C)CCC1` — outcome? yes

Called result for `CN(Cc1cnc2nc(N)nc(N)c2n1)c1ccc(C(=O)N[C@@H](CCC(=O)O)C(=O)O)cc1` no
